METRIC: melting point

Q: Find the recorded melting point belonging to "COc1cccc(OC)c1/C=C/c1cc(=O)oc2c1ccc1c(C)cccc12" and report it.
Ans: 160 to 161 °C

Q: Find the recorded melting point belonging to "COc1ccc(/C=C/c2cc(=O)oc3c2ccc2ccccc23)cc1OC" and report it.
Ans: 180 to 182 °C

Q: Find the recorded melting point belonging to "COc1cc(/C=C/c2cc(=O)oc3c2ccc2ccccc23)cc(OC)c1OC" and report it.
Ans: 172 to 173 °C

Q: Find the recorded melting point belonging to "COc1cccc(OC)c1/C=C/c1cc(=O)oc2c1ccc1ccccc12" and report it.
Ans: 174 to 175 °C

Q: Find the recorded melting point belonging to "COc1cccc2c1ccc1c(/C=C/c3ccc([N+](=O)[O-])cc3)cc(=O)oc12" and report it.
Ans: 220 to 222 °C

Q: Find the recorded melting point belonging to "COc1ccc(/C=C/c2cc(=O)oc3c2ccc2ccccc23)cc1" and report it.
Ans: 142 to 144 °C

Q: Find the recorded melting point belonging to "COc1cccc(OC)c1/C=C/c1cc(=O)oc2c1ccc1c(OC)cccc12" and report it.
Ans: 178 to 179 °C

Q: Find the recorded melting point belonging to "COc1cccc(/C=C/c2cc(=O)oc3c2ccc2ccccc23)c1" and report it.
Ans: 145 to 146 °C

Q: Find the recorded melting point belonging to "COc1ccc(/C=C/c2cc(=O)oc3c2ccc2ccccc23)c(OC)c1" and report it.
Ans: 181 to 183 °C

Q: Find the recorded melting point belonging to "COc1cc(/C=C/c2cc(=O)oc3c2ccc2c(OC)cccc23)cc(OC)c1OC" and report it.
Ans: 205 to 206 °C

# ---- query compound ----
Q: Find the recorded melting point belonging to "COc1ccc(OC)c(/C=C/c2cc(=O)oc3c2ccc2ccccc23)c1" and report it.
Ans: 168 to 170 °C

====

assay: In-vivo pharmacokinetic study; set-up: species or system Sprague Dawley (SD) rats; details: male, Sprague Dawley, plasma; rat, oral route, 50 mg/kg
METRIC: Cmax (ng/mL)
# number only, unit ng/mL dropped from output

Q: Find the recorded Cmax belonging to "COc1cc(/C=C/c2cc(=O)oc3c2ccc2ccccc23)cc(OC)c1" and report it.
Ans: 13.4

====

assay: In-vivo pharmacokinetic study; parameters: species or system Sprague Dawley (SD) rats; settings: male, Sprague Dawley, plasma, iv; rat, I.V route, 5 mg/kg
METRIC: half-life (h)
# number only, unit h dropped from output

Q: Find the recorded half-life belonging to "COc1cc(/C=C/c2cc(=O)oc3c2ccc2ccccc23)cc(OC)c1" and report it.
Ans: 19.2

====

assay: In-vivo pharmacokinetic study; set-up: species or system Sprague Dawley (SD) rats; conditions: male, Sprague Dawley, plasma; rat, oral route, 50 mg/kg
METRIC: half-life (h)
# number only, unit h dropped from output

Q: Find the recorded half-life belonging to "COc1cc(/C=C/c2cc(=O)oc3c2ccc2ccccc23)cc(OC)c1" and report it.
Ans: 22.8

====

assay: In-vivo pharmacokinetic study; set-up: species or system Sprague Dawley (SD) rats; settings: male, Sprague Dawley, plasma; rat, oral route, 50 mg/kg
METRIC: AUC(0-t) (ng·h/mL)
# number only, unit ng·h/mL dropped from output

Q: Find the recorded AUC(0-t) belonging to "COc1cc(/C=C/c2cc(=O)oc3c2ccc2ccccc23)cc(OC)c1" and report it.
Ans: 342

====

assay: In-vivo pharmacokinetic study; design: species or system Sprague Dawley (SD) rats; settings: male, Sprague Dawley, plasma, iv; rat, I.V route, 5 mg/kg
METRIC: AUC(0-t) (ng·h/mL)
# number only, unit ng·h/mL dropped from output

Q: Find the recorded AUC(0-t) belonging to COc1cc(/C=C/c2cc(=O)oc3c2ccc2ccccc23)cc(OC)c1 [Compound 19] and report it.
Ans: 457

====

assay: In-vivo pharmacokinetic study; design: species or system Sprague Dawley (SD) rats; settings: male, Sprague Dawley, iv; rat, I.V route, 5 mg/kg; plasma concentration at 5 min
METRIC: Cmax (ng/mL)
# number only, unit ng/mL dropped from output

Q: Find the recorded Cmax belonging to "COc1cc(/C=C/c2cc(=O)oc3c2ccc2ccccc23)cc(OC)c1" and report it.
Ans: 325

====

Below, each entry is listed alongside its reported melting point.

Guide cases for melting point, answers given:
Q: Find the recorded melting point belonging to "COc1ccc(/C=C/c2cc(=O)oc3c2ccc2c(OC)cccc23)cc1" and report it.
Ans: 170 to 171 °C

Q: Find the recorded melting point belonging to "COc1cccc2c1ccc1c(/C=C/c3ccc(C#N)cc3)cc(=O)oc12" and report it.
Ans: 188 to 189 °C

Q: Find the recorded melting point belonging to "Cc1cccc2c1ccc1c(/C=C/c3ccc([N+](=O)[O-])cc3)cc(=O)oc12" and report it.
Ans: 238 to 239 °C

# ---- query compound ----
Q: Find the recorded melting point belonging to "Cc1cccc2c1ccc1c(/C=C/c3ccccc3)cc(=O)oc12" and report it.
Ans: 178 to 179 °C
